PROTOCOL_SUMMARY: Metabolic stability test in pooled human liver microsomes
Type: in vitro ADME
MEASUREMENT_CONTEXT: human liver microsomes 0.5 mg protein/mL, 1 mmol/L NADPH, 37° C., 30 minutes
This listing pairs molecules with measured MS_h_% (remaining amount of compound after reaction, 0 minute = 100%).
OBSERVABLE: MS_h_% (remaining amount of compound after reaction, 0 minute = 100%)

[
  {
    "MOLECULE": "Cc1ccn2c(C(=O)NCc3ccc(N4C[C@H](C)N(c5ccc(OC(F)(F)F)cc5)C[C@H]4C)c(F)c3)c(C)nc2c1 [Compound I-1-41]",
    "REPORTED_VALUE": 86
  },
  {
    "MOLECULE": "CCOc1ccc(N2CCN(c3ccc(CNC(=O)c4c(CC)nc5cc(F)ccn45)cc3F)C[C@@H]2C)cc1.Cl [Compound I-1-109]",
    "REPORTED_VALUE": 80
  },
  {
    "MOLECULE": "CCc1nc2cc(F)ccn2c1C(=O)NCc1ccc(N2CCN(c3ccc(C(F)(F)F)cc3)[C@@H](C)C2)c(F)c1.Cl [Compound I-1-112]",
    "REPORTED_VALUE": 69
  }
]
